Target: Protein deacetylase HDAC6 (Homo sapiens)
Sequence (Q9UBN7 whole entry): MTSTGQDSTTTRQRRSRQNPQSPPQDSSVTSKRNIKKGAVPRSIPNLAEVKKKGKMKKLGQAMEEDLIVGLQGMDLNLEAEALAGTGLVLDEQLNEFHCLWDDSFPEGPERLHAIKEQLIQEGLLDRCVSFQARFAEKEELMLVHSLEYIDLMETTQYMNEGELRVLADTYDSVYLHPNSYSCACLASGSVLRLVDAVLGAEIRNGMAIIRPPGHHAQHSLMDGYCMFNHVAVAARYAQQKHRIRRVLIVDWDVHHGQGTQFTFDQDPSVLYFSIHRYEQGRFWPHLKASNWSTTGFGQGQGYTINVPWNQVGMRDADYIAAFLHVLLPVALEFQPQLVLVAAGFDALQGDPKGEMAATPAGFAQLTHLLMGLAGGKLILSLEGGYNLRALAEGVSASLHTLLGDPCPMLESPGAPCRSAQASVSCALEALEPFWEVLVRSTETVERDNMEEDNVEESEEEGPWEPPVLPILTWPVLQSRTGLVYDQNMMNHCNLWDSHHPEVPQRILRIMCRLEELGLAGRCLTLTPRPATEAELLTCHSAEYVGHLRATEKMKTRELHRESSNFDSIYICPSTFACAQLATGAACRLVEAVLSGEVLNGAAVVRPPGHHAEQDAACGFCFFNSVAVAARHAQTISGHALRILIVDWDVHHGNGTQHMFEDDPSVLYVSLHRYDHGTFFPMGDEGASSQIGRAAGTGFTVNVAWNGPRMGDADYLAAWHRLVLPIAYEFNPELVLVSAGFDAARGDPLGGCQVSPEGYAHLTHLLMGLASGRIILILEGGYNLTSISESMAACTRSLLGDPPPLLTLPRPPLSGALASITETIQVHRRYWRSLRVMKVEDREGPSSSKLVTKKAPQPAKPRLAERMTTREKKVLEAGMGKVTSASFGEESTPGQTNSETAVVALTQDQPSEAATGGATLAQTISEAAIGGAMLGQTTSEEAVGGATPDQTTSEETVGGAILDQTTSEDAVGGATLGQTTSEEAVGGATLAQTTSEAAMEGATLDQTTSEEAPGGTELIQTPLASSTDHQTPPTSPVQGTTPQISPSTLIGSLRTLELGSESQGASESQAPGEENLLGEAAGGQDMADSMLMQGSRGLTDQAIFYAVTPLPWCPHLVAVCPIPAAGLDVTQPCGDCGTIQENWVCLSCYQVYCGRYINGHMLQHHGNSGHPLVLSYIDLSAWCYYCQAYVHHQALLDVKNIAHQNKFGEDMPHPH
Result Type: pIC50
Formally, pIC50 is defined as -log10 of the concentration c, with c in mol/L.

Note pIC50 for the molecule shown: O=C(CCCCCCNc1nc2ccccc2nc1-c1nc2ccccc2o1)NO
7.35

The measurements presented in this section are drawn from ChEMBL document CHEMBL5257106.
